In this section, each of the molecules is paired with its reported μeff, effective magnetic moment.
- PROTOCOL_DETAILS: Magnetic susceptibility, SQUID magnetometer
- Type: physicochemical
- EXPERIMENTAL_CONDITIONS: from magnetic susceptibility data, SQUID
- Method: The μeff values for each exemplary MIL were determined using a Quantum Design MPMS SQUID magnetometer following procedures similar to those previously reported. (Y. Mudryk, P. Manfrinetti, V. Smetana, J. Liu, M. L. Fornasini, A. Provino, V. K. Pecharsky, G. J. Miller and K. A. Gschneidner, J. Alloys Compd, 2013, 557, 252-260).
EXPERIMENTAL_ENDPOINT: μeff, effective magnetic moment (μB)

SUBSTANCE_SMILES | ASSAY_RESULT
CCCCCCCCCCCCCC[P+](CCCCCC)(CCCCCC)CCCCCC | 4.3
CCCCCCCCCCCCCC[P+](CCCCCC)(CCCCCC)CCCCCC.O=C(C=C([O-])C(F)(F)F)C(F)(F)F.O=C(C=C([O-])C(F)(F)F)C(F)(F)F.O=C(C=C([O-])C(F)(F)F)C(F)(F)F.O=C(C=C([O-])C(F)(F)F)C(F)(F)F.[Dy+3] | 9.7
CCCCCCCCCCCCCC[P+](CCCCCC)(CCCCCC)CCCCCC.O=C(C=C([O-])C(F)(F)F)C(F)(F)F.O=C(C=C([O-])C(F)(F)F)C(F)(F)F.O=C(C=C([O-])C(F)(F)F)C(F)(F)F.O=C(C=C([O-])C(F)(F)F)C(F)(F)F.[Nd+3] | 2.8

* * *

- PROTOCOL_DETAILS: Magnetic susceptibility, SQUID magnetometer
- Assay type: physicochemical
- EXPERIMENTAL_CONDITIONS: from magnetic susceptibility data, SQUID
# μeff, effective magnetic moment values compiled below

SUBSTANCE_SMILES | μeff, effective magnetic moment / μB
CCCCCCCCCCCCCC[P+](CCCCCC)(CCCCCC)CCCCCC.O=C(C=C([O-])C(F)(F)F)C(F)(F)F.O=C(C=C([O-])C(F)(F)F)C(F)(F)F.O=C(C=C([O-])C(F)(F)F)C(F)(F)F.[Co+2] | 4.3
CCCCCCCCCCCCCC[P+](CCCCCC)(CCCCCC)CCCCCC.O=C(C=C([O-])C(F)(F)F)C(F)(F)F.O=C(C=C([O-])C(F)(F)F)C(F)(F)F.O=C(C=C([O-])C(F)(F)F)C(F)(F)F.O=C(C=C([O-])C(F)(F)F)C(F)(F)F.[Gd+3] | 7.7
